Ref: PubChem BioAssay AID248

Assign T/C to each entry below.
Test system: L1210 leukemia ip in BDF1 mice, survival T/C
Assay: NCI In Vivo Anticancer Drug Screen. Data for tumor model L1210 Leukemia (intraperitoneal) in B6D2F1 (BDF1) mice
Conditions: endpoint: mean survival time; dose: 75.0 mg/kg/injection; schedule: Q01DX001 (ip); vehicle: saline; higher = longer survival
Inconclusive results and toxic doses are left out.

The molecule Cc1cccc(C(=O)NO)c1O showed T/C equal to 101 % of control

The molecule CN1C2C=C(c3ccccc3)C(Br)C1CC2 (centres undefined) showed T/C equal to 102 % of control

The molecule CC([NH-])C(=O)[O-].[K+].[O]=[Co][O-] (centres undefined) showed T/C equal to 107 % of control

The molecule CCC(O)CNC1CCCCC1 (centres undefined) showed T/C equal to 98 % of control
